Data origin: ChEMBL document CHEMBL1136853

# method.summary: Toxicity to mouse assessed as mortality at 12 mg/kg, ip q4d for 3 days
# Format: organism-based
# Set-up: dose 12 mg/kg, route intraperitoneal
# cond: in vivo, read-out: Activity
measured.quantity: mortality at 72 h

[[record]]
mol_smiles = "CCC1=C[C@@H]2CN(C1)Cc1c([nH]c3ccccc13)[C@@](C(=O)OC)(c1cc3c(cc1OC)N(C)[C@H]1[C@@](O)(C(=O)OC)[C@H](OC(C)=O)[C@]4(CC)C=CCN5CC[C@]31[C@@H]54)C2"
result = "> 10%"

